- Experiment description: Toxicity liver stage against HepG2, at 10uM
- Type: cell-based
- Design: test concentration 10 uM, cell line HepG2-A16-CD81EGFP
- Measurement parameters: human, HepG2-A16-CD81EGFP cells; read-out: INHIBITION
Field: cytotoxicity at 10 µM. Provide a value for each of the compounds that follow.
Units required after the number.

Sample records with cytotoxicity at 10 µM:
>>> print(df.to_string())
                                   compound  reading
0  COCCN1CCC2(CC1)CC(NC(=O)COC)c1ccccc1O2 (configuration not stated)   -8.43%
1         COc1ncc(NCc2ccc(C#N)cc2)cc1C(N)=O   0.217%

Parameter requested: cytotoxicity at 10 µM. Apply to each item below.
1. CC(C)c1nnc(NC(=O)N2CCCC2c2ccncc2)s1 (configuration not stated)
2. O=C(NCCCn1cncn1)c1ccc(-c2ccco2)[nH]c1=O
3. CCN(CC)C(=O)CNC(=O)c1c[nH]c2ccc(OC)cc12
4. COCCNC(=O)Nc1ccn(-c2cccc(C(F)(F)F)c2)n1
5. CC(C)=CCN1CCN(Cc2cccc(C)n2)CC1CCO (configuration not stated)

result:
["5.6%", "2.87%", "-0.527%", "-1.94%", "1.99%"]

Parameter requested: cytotoxicity at 10 µM. Apply to each item below.
1. Cc1ccc(OCc2nc(CNCCn3cccn3)cs2)cc1
2. Cc1noc2ncc(S(=O)(=O)Nc3cc(CC(C)(C)C)[nH]n3)cc12

result:
1. 0.979%
2. 5.55%

Parameter requested: cytotoxicity at 10 µM. Apply to each item below.
1. CN(C)CCN(Cc1ccccn1)C(=O)Nc1cccc(F)c1
2. CCn1c(C2CCCN(Cc3ccc(F)cc3Cl)C2)nn(C)c1=O (configuration not stated)
3. Cn1nc(C2CCCN2)c2c(C(=O)NCC(F)(F)F)cc(C3CC3)nc21 (configuration not stated)

result:
1. 8.94%
2. -2.75%
3. 13.1%
